# pKd annotations
Biological target: T1, human CD24 protein (ACRO) (human, UniProt P25063 27-59)
T1 construct: also called analyte human CD24 protein
T1 chain (looked up): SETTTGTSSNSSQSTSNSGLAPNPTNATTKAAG
Assay: BLI (ForteBio Octet RED96e), antibody immobilised, human CD24 protein as analyte
pKd: −log10 of the molar value.
readout: pKd

INSERT INTO results (binder, readout, measured) VALUES
  ('humanized antibody hu-01-L2H3 (antibody, human IgG1, kappa, V domains shown, Humanized from ms-01: light chain L2, heavy chain H3) VH: QVQLVQSGSELKKPGASVKVSCKASGYIFTDYAIHWVKQAPGQGLEWMGFINTATGEPTYADDFKGRFVFSLDTSVSTAYLQISSLKAEDTAVYFCTSGVHWGQGTLVTVSS VL: DIQMTQSPSTLSASVGDRVTITCSASSSVSSMHWYQQKPGKAPKLLIYSTSNLASGVPSRFSGSGSGTEYTLTISSLQPDDFATYYCHHWTSYMYTFGGGTKVEIKR', 'pKd', 8.04),
  ('humanized antibody hu-01-L3H3 (antibody, human IgG1, kappa, V domains shown, Humanized from ms-01: light chain L3, heavy chain H3) VH: QVQLVQSGSELKKPGASVKVSCKASGYIFTDYAIHWVKQAPGQGLEWMGFINTATGEPTYADDFKGRFVFSLDTSVSTAYLQISSLKAEDTAVYFCTSGVHWGQGTLVTVSS VL: DIQLTQSPSTLSASVGDRVTITCSASSSVSSMHWYQQKPGKSPKLLIYSTSNLASGVPSRFSGSGSGTEYTLTISSLQPDDFATYYCHHWTSYMYTFGGGTKVEIKR', 'pKd', 7.91);
